System name: T1, recombinant human FGF23 (R179Q) (human, UniProt Q9GZV9 25-251)
T1 construct: also called rhFGF23(R179Q); hFGF23(R179Q)
T1 sequence (looked up): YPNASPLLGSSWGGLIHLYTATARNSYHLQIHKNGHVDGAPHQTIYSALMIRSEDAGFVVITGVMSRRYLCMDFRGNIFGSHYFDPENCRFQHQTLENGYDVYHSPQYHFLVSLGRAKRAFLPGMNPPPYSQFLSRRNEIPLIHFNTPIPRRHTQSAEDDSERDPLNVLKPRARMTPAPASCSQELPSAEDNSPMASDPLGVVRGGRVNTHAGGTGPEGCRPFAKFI
Measurement description: SPR, antibody captured on hIgG chip, rhFGF23(R179Q) analyte
Reported property: pKd
Please treat pKd as minus the base-10 logarithm of the molar concentration.

Endpoint output: pKd of UGX175 (antibody, human IgG1, kappa, V domains shown, also called HC:A103S; A103S) VH: QVQLVQSGAEVKKPGASVKVSCKASGYTFTNHYMHWVRQAPGQGLEWMGIINPISGSTSNAQKFQGRVTMTRDTSTSTVYMELSSLRSEDTAVYYCARDIVDSFDFWGQGTMVTVSS VL: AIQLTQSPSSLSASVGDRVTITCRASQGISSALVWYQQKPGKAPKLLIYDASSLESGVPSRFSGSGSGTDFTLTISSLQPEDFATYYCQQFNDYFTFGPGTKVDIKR . Value?
11.11

Endpoint output: pKd of UGX164 (antibody, human IgG1, kappa, V domains shown, also called HC:S59T) VH: QVQLVQSGAEVKKPGASVKVSCKASGYTFTNHYMHWVRQAPGQGLEWMGIINPISGSTTNAQKFQGRVTMTRDTSTSTVYMELSSLRSEDTAVYYCARDIVDAFDFWGQGTMVTVSS VL: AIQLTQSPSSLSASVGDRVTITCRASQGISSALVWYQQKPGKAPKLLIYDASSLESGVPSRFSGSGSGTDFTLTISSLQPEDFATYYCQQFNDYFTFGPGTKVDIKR . Value?
10.47

New cases:
Endpoint output: pKd of UGX148 (antibody, human IgG1, kappa, V domains shown, also called HC:T30F) VH: QVQLVQSGAEVKKPGASVKVSCKASGYTFFNHYMHWVRQAPGQGLEWMGIINPISGSTSNAQKFQGRVTMTRDTSTSTVYMELSSLRSEDTAVYYCARDIVDAFDFWGQGTMVTVSS VL: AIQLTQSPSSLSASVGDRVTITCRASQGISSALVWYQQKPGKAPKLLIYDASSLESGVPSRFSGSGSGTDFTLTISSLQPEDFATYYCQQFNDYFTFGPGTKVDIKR . Value?
10.57
